# System: recombinant β-galactoside-α2,6-sialyltransferase N1C0
# TEST_SUMMARY: Glycosyl acceptor substrate specificity, monosaccharides and disaccharides
# Assay type: biochemical, Photobacterium leiognathi
# EXPERIMENTAL_SETUP: sialyltransferase activity toward lactose set to 100
Recorded % (nmol), relative activity toward acceptor substrate for the following molecules
Report the value in % with no unit label.

## Input Fill in the blank: the reported % (nmol), relative activity toward acceptor substrate of CO[C@@H]1O[C@H](CO)[C@@H](O)[C@H](O)[C@H]1O [Glc-β-OMe, methyl-β-D-glucopyranoside] is ____.
## Output 0

## Input Fill in the blank: the reported % (nmol), relative activity toward acceptor substrate of CC(=O)N[C@H]1C(O)O[C@H](CO)[C@H](O)[C@@H]1O[C@@H]1O[C@H](CO)[C@H](O)[C@H](O)[C@H]1O (stereo partly drawn) [Gal-β1,3-GalNAc] is ____.
## Output 71

## Input Fill in the blank: the reported % (nmol), relative activity toward acceptor substrate of OC[C@H]1O[C@@H](O[C@H]2[C@H](O)[C@@H](O)C(O)O[C@@H]2CO)[C@H](O)[C@@H](O)[C@H]1O (stereo partly drawn) [Gal-β1,4-Glc, lactose] is ____.
## Output 100

Origin of the recorded values: patent US8372617B2
